Population Mitochondria Different-Phenotype (%) values for the compounds below.
System: HEK-293T
assay info: Multiplex assay against HEK293T
Assay type: toxicity, cell-based
particulars: human, 24 h, 1 µM, compound concentration 1 uM, replicate 2
recorded endpoint: Population Mitochondria Different-Phenotype (%)

{"compound": "CCCCN(CC)c1nc(C)nc2c1c(C)cn2-c1c(C)cc(C)cc1C.Cl", "result": "13%"}
{"compound": "C[C@@H](Oc1cc(-n2cnc3ccc(CN4CCN(C)CC4)cc32)sc1C(N)=O)c1ccccc1C(F)(F)F [GSK-461364]", "result": "54%"}
{"compound": "C=CC(=O)Nc1cc(-n2c(=O)ccc3cnc4ccc(-c5ccc(NS(C)(=O)=O)cc5)cc4c32)ccc1C", "result": "16%"}
{"compound": "CC(C)c1cc(Nc2nc(N3CCC[C@H](N)C3)ncc2C(N)=O)cc(C(C)C)n1", "result": "89%"}
{"compound": "Cc1ccc(S(=O)(=O)NC2c3ccccc3Oc3ccccc32)cc1", "result": "12%"}

Provenance of the data: ChEMBL document CHEMBL4689842
